B1: PHTF1 (parent)
chain: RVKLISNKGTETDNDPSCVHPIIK

Variants of: B1
test_description: protein stability index of a GFP-peptide fusion (GPS, HEK-293T) (PSI 1-6); higher = more stable;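 also: lentivirally expressed fusions sorted by FACS into six bins by GFP to DsRed ratio, PSI derived from sequencing read proportions per bin multiplied by bin number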
reported_conditions: c terminus: a fixed tail appended
Binary call on protein stability index: T from 4 upward, F beneath that.

N14C: F

input: Say whether T10H shows protein stability index of 4 or more.
output: T

Taken from the supplement of paper PMC10567573.
